experiment: Inhibition of RANKL-induced osteoclastogenesis in mouse RAW264 cells assessed as reduction in multinucleated TRAP positive osteoclasts incubated for 4 days by TRAP staining based light microscopic analysis; type: functional, cell-based; conditions: raw264.7
Overview of recorded IC50 for various molecules
# number only, unit µM dropped from output

> print(dat)
                                smiles.data  measured.quantity  number
1  CC(C)[C@@]1(O)CC[C@@]2(C)C[C@](O)([C@@H]3CC[C@@H]4[C@]3(C)CC[C@H]3OC(C)(C)[C@H](O)C(=O)[C@H](O)[C@]43C)CC[C@H]21               IC50    32.8

### Prompt Find the recorded IC50 belonging to CC(C)[C@@]1(O)CC[C@@]2(C)C[C@](O)([C@@H]3CC[C@@H]4[C@]3(C)CC[C@H]3OC(C)(C)[C@H](O)C(=O)[C@@H](O)[C@]43C)CC[C@H]21 and report it.
### Response 12.8
